Just for reference, patent US20250042994A1 is where these values come from.

So I've got a bunch of binders here, and I need their Proportion of chimeric antibody positive cells to B cells (%) at 10 nM values.
test.target: T1, cynomolgus monkey CD19 on peripheral blood B cells (cynomolgus monkey (Macaca fascicularis), UniProt A0A2K5W8L9 20-557)
T1 construct: whole, on cells; also called cynomolgus monkey B cells
T1 sequence: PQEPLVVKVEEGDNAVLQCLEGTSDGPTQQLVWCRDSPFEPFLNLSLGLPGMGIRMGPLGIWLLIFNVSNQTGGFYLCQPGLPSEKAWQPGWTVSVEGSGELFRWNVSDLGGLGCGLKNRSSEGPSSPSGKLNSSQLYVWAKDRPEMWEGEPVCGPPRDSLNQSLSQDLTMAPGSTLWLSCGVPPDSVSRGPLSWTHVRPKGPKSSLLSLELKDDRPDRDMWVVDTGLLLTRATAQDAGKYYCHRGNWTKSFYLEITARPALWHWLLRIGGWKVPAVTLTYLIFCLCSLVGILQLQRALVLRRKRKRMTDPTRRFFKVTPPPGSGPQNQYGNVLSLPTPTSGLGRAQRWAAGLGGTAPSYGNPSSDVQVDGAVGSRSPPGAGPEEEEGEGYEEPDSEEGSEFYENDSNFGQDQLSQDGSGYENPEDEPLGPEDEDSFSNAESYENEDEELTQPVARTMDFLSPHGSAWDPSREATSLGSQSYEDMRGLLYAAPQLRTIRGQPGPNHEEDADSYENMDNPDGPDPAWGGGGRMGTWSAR
procedure.summary: FACS, cynomolgus PBMC, CD20+ B cells
Protocol: The monkey peripheral blood mononuclear cells were extracted from fresh cynomolgus monkey peripheral blood (purchased from Shanghai Medicilon Inc.) according to the instructions of Ficoll-Paque Plus (purchased from GE Healthcae, catalog number: 171440-02). After the cell suspension was centrifuged, the cells were resuspended in PBS containing 1% BSA, and then the cells were counted. […] The mixture was incubated for 1 h at room temperature. […]
One number for each entry, in %.

- binder: "F5.11.2 (antibody, human IgG1, V domains shown, human-murine chimeric antibody, human IgG1) VH: EVQLVESGGDLVKPGGSLKLSCAASGFTFSSYGMSWVRQTPDKRLEWVATISHGGSYTHYPDSVKGRFTISRDNAKNTLYLQMNSLKSEDTAMYYCVRLPITTVEAPYFFDYWGQGTTLTVSS VL: DIQMTQTTSSLSASLGDRVTISCRASQDIRNYLNWYQQKPDGTVKLLIYYTSILHSGVPSRFSGSGSGTDYSLTINNLEQEDVATYFCQQGNTLYTFGGGTEVELR"
  measure.unit: "%"
  recorded.measurement: 34
- binder: "F6.12.12 (antibody, human IgG1, V domains shown, human-murine chimeric antibody, human IgG1) VH: DVQLQESGPGLVKPSQSLSLTCSVTGYSITSGYYWIWIRQFPGNKLEWMGYISYDASNKYKPSLKNRISITRDTSKNQFFLKLNSVTAEDTATYFCAREDLRGYFDVWGTGTSVTVSS VL: DIVLTQSPASLAVSLGRRATISCRASQSVSTSGFSYMHWYQQKPGQPPNLLIKYASILQSGVPARFSGSGSGTDFILNIHPVEDVDTATYYCQHSWGIPFTFGSGTKLEIK"
  measure.unit: "%"
  recorded.measurement: 97

INPUT: I have this binder here, F3.113.16 (antibody, human IgG1, V domains shown, human-murine chimeric antibody, human IgG1) VH: QVQLQQPGAELVKPGASVKLSCKASGYTFTNYWMQWVKQRPGQGLEWIGEIDPSDSYINYNQKFKGKATLTADTSSSTAYMQLSSLTYEDSAVYYCARPVTVPWYFDVWGTGTTVTVSS VL: EIVLTQSPTTMAASPGEKITITCSATSSISSNYLHWYQQKPGFSPKLLIYRTSNLASGVPARFSGSGSGTSYSLTIGTMEAEDVATYYCQQGSAIPRIFTFGSGTKLEIK , and I need its recorded Proportion of chimeric antibody positive cells to B cells (%) at 10 nM.
OUTPUT: 1
